biological target: UniProtKB A0A0K0J2Q9; assay: Two-electrode voltage-clamp on Xenopus laevis oocytes expressing Bma-AVR-14B; conditions: pIC50, inhibition of L-glutamate-gated current, coapplied with 30 mM L-glutamate
readout kind: IC50
Quote the value and follow it with the unit of measurement.

# query: IC50 of entry N#Cc1nn(-c2c(Cl)cc(C(F)(F)F)cc2Cl)c(N)c1[S+]([O-])C(F)(F)F (stereo not shown)
2000 nM

###

target: B. malayi AVR-14B GluCl (Brugia malayi); assay: Two-electrode voltage-clamp on Xenopus laevis oocytes expressing Bma-AVR-14B; details: IC50, inhibition of L-glutamate-gated current, coapplied with 30 mM L-glutamate
readout kind: IC50 (nM)
# value in nM; strip the unit string

Tell me reported IC50 for N#Cc1nn(-c2c(Cl)cc(C(F)(F)F)cc2Cl)c(N)c1[S+]([O-])C(F)(F)F (stereo not shown) [FIP, fipronil] , tested with B. malayi AVR-14B GluCl (Brugia malayi).
1800

###

Target: B. malayi AVR-14B GluCl (Brugia malayi)
Sequence (A0A0K0J2Q9 19-427): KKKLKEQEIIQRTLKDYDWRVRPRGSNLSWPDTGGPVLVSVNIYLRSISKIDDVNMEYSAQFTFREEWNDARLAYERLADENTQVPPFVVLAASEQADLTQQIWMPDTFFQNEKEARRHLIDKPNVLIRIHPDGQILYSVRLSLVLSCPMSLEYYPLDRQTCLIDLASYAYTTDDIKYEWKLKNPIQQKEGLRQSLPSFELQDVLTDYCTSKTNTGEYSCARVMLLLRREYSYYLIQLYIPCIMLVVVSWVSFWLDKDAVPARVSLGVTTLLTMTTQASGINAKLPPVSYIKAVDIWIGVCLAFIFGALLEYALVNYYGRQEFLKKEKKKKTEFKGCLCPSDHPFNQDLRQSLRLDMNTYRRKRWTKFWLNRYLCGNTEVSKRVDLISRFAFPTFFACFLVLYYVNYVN
Assay: Two-electrode voltage-clamp on Xenopus laevis oocytes expressing Bma-AVR-14B
Details: tested at 1 mM
readout kind: agonist activity (in words)

- compound: "NCC(=O)O [Glycine, glycine]"
  readout kind: "agonist activity (in words)"
  readout value: "inactive"
- compound: "NCCCC(=O)O [GABA, γ-amino butyric acid]"
  readout kind: "agonist activity (in words)"
  readout value: "inactive"
